# yeast fitness annotations
B1: tRNA (parent)
chain: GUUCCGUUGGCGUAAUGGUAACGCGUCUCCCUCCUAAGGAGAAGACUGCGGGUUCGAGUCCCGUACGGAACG

Variants of: B1
ASSAY EXPLANATION: yeast fitness relative to wild type (ratio to wild type); higher = fitter; tRNA-Arg(CCU), competitive growth, 37 C, YPD
Fewer inactive variants are shown than the library holds.
Just the number, please.

For the variant U35G C61U , what yeast fitness is on record?
0.792

---
For the variant C5G U8A G41C U47A , what yeast fitness is on record?
0.605

Also C24G A65U ?
0.742

Also C4G C24U ?
0.993

Also C29U G58C A65G ?
0.61

Also C34G G48A A57G ?
0.631

Also G38A C61A ?
0.646

Also C22U C55U ?
0.686
